- Procedure details: Elimination half life in Han Wistar rat at 0.2 mg/kg, iv by LC-MS/MS analysis
- Assay type: ADME, organism-based
- Design: dose 0.2 mg/kg, route intravenous
- Details: in vivo, read-out: beta t1/2 (converted)
Readout: half-life (min)
One number for each entry, in min.

The following compounds have reported results that may help.
Chemical smiles	Unit tag	half-life
CN[C@@H](C)C(=O)N[C@H](C(=O)N1CCC[C@H]1C(=O)N[C@H]1c2ccccc2CC[C@H]1OCC#CC#CCO[C@@H]1CCc2ccccc2[C@@H]1NC(=O)[C@@H]1CCCN1C(=O)[C@@H](NC(=O)[C@H](C)NC)C(C)(C)C)C(C)(C)C	min	30
CN[C@@H](C)C(=O)N[C@H](C(=O)N1CCC[C@H]1C(=O)N[C@H]1c2ccccc2C[C@H]1OCC#CC#CCO[C@@H]1Cc2ccccc2[C@@H]1NC(=O)[C@@H]1CCCN1C(=O)[C@@H](NC(=O)[C@H](C)NC)C(C)C)C(C)C	min	96

Pending compound:
Entry CN[C@@H](C)C(=O)N[C@H](C(=O)N1CCC[C@H]1C(=O)N[C@@H]1CCN(CC#CC#CCN2CC[C@@H](NC(=O)[C@@H]3CCCN3C(=O)[C@@H](NC(=O)[C@H](C)NC)C3CCCCC3)c3ccccc32)c2ccccc21)C1CCCCC1 , half-life reported as 36
